- Tested system: Stimulator of interferon genes protein (Mus musculus, UniProt Q3TBT3)
- Sequence (Q3TBT3 whole entry): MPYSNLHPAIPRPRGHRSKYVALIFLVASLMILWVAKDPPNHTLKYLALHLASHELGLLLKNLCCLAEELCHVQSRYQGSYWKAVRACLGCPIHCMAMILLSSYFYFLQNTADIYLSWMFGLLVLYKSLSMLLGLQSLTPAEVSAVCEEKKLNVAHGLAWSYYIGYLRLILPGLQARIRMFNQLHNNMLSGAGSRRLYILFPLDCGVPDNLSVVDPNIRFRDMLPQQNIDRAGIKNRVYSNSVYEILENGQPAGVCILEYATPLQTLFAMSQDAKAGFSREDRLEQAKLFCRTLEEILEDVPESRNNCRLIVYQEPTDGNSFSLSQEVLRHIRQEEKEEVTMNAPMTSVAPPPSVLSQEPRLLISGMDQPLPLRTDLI
Attribute measured: pKd
Expect pKd as a plain number equal to -log10 of the molar concentration.

(Q) What pKd appears in the records for this compound with Stimulator of interferon genes protein (Mus musculus, UniProt Q3TBT3)? COc1c(O)cc2oc3cc(O)c(CC=C(C)C)c(O)c3c(=O)c2c1CC=C(C)C
(A) 3.86

---

- Assay explanation: Binding affinity to human STING H232 mutant by ITC assay
Attribute measured: pKd
Field pKd (float): negative decimal logarithm of the concentration in molar.

(Q) Reported pKd for Nc1nc2c(ncn2[C@@H]2O[C@@H]3COP(=O)(O)O[C@@H]4[C@H](O)[C@@H](COP(=O)(O)O[C@@H]2[C@@H]3O)O[C@H]4n2cnc3c(N)ncnc32)c(=O)[nH]1 : what is it?
(A) 5.60

Values were extracted from ChEMBL document CHEMBL4342439.
